B1: glmS ribozyme (parent)
chain: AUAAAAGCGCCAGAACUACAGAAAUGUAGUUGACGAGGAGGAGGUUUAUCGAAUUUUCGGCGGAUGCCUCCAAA

Variants of: B1
Assay: self-cleavage kobs at 640 uM GlcN6P; higher = faster cleavage; RNA array
Details: with glucosamine-6-phosphate
Variants at the floor of the assay were thinned out.
endpoint: self-cleavage kobs at 640 uM GlcN6P (s⁻¹)
Answers are plain numbers, in s⁻¹.

{"columns": ["macromolecule sequence", "value unit", "self-cleavage kobs at 640 uM GlcN6P"],
 "data": [
  ["AUAAAAGCGCCAGAUGUACAGAAAUGUAGUUGACGAGGAGGAGGUUUAUCGAAUUUUCGGCGGAUGCCUCCAAA [A15U C16G]", "s⁻¹", 0.000169],
  ["AUAAAAGCGCCAGAACUACAGAAAUGUACUUGACGAGGAGGAGGUUUAUCGAAUUUUCGGCGGAGGGCUCCAAA [G29C U65G C67G]", "s⁻¹", 0.000341],
  ["AUAAAAGCGCCAGAACUACAGAAAUGUAGUUGACGACGAGGAGGUUGAUCGAAUUUUCGGCGGAUGCCGCCAAA [G37C U47G U69G]", "s⁻¹", "5.97e-05"],
  ["AUAAAAGCGCCAGGACUACAGAAAUGUAGUUGACGAGGACGAGGUUUAUCGAAUUUUCGGCGGAUGCCUCCAAA [A14G G40C]", "s⁻¹", 0.00301],
  ["AUAAAAGCGCCAGAACUACAGAAAUGUAGUUGACGAGGAUGAGGUUUAUCGAAUGUUCGGCGGAUGCCUCCAAA [G40U U55G]", "s⁻¹", 0.000543]
]}

Parameter requested: self-cleavage kobs at 640 uM GlcN6P. Apply to each item below.
1. AUAAAAGCGCCAGAACUACAGAAAUGUAGUUGACGAGGAGGGGGUUUAUCGAAUUUUCGGCGGAUGCCUUCAAA [A42G C70U]
2. AUAAAAGCGCCAGAACUACAGAAAUGUAGUUGACGCGAAGGAGGUUUAUCGAUUUUUCGGCGGAUGCGUCCAAA [A36C G38A A53U C68G]

## Result
[0.00975, "9.97e-05"]

Note to self: self-cleavage kobs at 640 uM GlcN6P recorded for AUAAAAGCGCCAGAACUACAGAAAUGUAGUUGACGAGGAAGAGGUUUUUCGAAUUUUCGGCGGAUGCCUCCAAA [G40A A48U] was 2.83e-05
